In this section, each of the molecules is paired with its reported %Inh.
# Tested on: NEK5;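 note: KINOMEscan kinase panel screen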
# measurement setup: concentration: 1 μM, replicates: in singlicate; n = 1
parameter: %Inh (%)

                                   molecule  val
0  COc1ccc(C2=C(Nc3cccc(C(=O)O)c3)C(=O)NC2=O)cc1 [SB-390765]    0
1  COc1ccc(Nc2nccc(-c3cccc(NC(=O)c4cc5cc(F)ccc5[nH]4)c3)n2)cc1 [GSK1229782]   29
2  Cl.Oc1ccc(-c2nc(-c3ccccc3)[nH]c2-c2ccncc2)cc1 [SB-428218]    6
3  Cc1cc(N2Cc3ccccc3C2)nc(Nc2ccc(S(=O)(=O)N3CCOCC3)cc2)n1.Cl [GSK1669917]   23
4  COc1ccc2nc(-c3cccc(C)n3)nc(Nc3ccncc3)c2c1 [GSK204919]   17
5    Fc1cccc(COc2nnc(-c3ccc4c(c3)CCO4)o2)c1    0
6  Cc1cc(-c2ccc3c(c2)CC[C@@H](N[C@@H](C)c2ccccc2)C3)cnc1N.Cl [GW412617]    0
7  CC(C)(C)c1ccc(C(=O)Nc2cn3cc(Cl)ccc3n2)cc1    0
8                     NC(=O)c1nnc2ccccc2c1N    3
